B1: HDV Ribozyme (parent)
chain: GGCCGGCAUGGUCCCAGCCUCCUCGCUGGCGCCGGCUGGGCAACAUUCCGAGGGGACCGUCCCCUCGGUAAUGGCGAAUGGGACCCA

- Variants of: B1
- Experiment: self-cleavage, relative activity (ratio to wild type); higher = more cleavage; co-transcriptional
just bin them by self-cleavage: low group (below 0.1), middle group (0.1 to below 0.5), high group (0.5 or more)

See these solved cases before continuing.
U9C C14A	high group
C24A G50A	high group
U20C G50U	middle group

Then there is this variant:
Prompt: Textbook exercise: identify the category of the variant given here, A45G A70C , according to its measured value.
Response: high group
